These data points were gathered from paper PMC10786891.

Each record here notes measured pKd.
- TESTED ON: T1, EsCas13d, nuclease-dead (Eubacterium siraeum, UniProt B0MS50, R295A;H300A;R849A;H854A)
- T1 sequence: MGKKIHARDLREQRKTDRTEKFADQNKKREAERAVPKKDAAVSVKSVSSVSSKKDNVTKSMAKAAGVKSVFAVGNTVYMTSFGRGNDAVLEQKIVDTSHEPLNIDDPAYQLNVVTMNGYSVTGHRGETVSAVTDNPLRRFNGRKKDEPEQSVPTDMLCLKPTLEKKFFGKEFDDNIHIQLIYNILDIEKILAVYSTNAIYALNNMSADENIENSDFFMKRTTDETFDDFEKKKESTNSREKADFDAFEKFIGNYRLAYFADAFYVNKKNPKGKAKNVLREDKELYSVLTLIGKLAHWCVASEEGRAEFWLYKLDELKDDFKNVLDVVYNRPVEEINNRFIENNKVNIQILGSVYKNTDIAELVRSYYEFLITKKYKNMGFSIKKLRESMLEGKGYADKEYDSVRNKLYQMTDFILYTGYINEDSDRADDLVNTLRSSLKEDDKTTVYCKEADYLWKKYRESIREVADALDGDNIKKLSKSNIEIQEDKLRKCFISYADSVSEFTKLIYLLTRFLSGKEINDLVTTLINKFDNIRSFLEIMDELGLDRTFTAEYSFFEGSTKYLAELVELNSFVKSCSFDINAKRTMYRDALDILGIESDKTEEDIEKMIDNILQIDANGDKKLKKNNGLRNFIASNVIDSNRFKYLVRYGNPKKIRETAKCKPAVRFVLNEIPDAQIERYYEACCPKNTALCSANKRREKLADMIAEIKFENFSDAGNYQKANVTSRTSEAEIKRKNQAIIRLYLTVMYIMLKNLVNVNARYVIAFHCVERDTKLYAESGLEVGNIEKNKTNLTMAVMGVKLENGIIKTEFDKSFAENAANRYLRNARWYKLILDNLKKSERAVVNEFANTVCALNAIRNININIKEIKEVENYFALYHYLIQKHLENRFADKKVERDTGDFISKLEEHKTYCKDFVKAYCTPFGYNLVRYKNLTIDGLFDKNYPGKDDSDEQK
- PROTOCOL DETAILS: crRNA (strand 1, pre-loaded); Mg2+; 40 mM Tris-HCl pH 7.5, 150 mM NaCl, 6 mM MgCl2, 1 mM DTT, 0.1% Tween-20, 0.2 mg/ml BSA; 25 C; 10 min per concentration, then washed
- RUN PARAMETERS: tags: His6-TwinStrep-SUMO cleaved; N-terminal SNAP kept (SNAP-Surface 488); label: 3' end held by stalled T7 RNA polymerase
# log scale: pKd equals minus log10 of the concentration in mol/L

Worked examples, 6 binders total:
Given the binder target 2 MT 5'PFS CGC 3'PFS CUG (mixed) RNA 1: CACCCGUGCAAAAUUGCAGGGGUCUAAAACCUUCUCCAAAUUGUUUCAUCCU RNA 2: GGGAAUGGAUCCACAUCUACGAAUUCCGCAGGAUGAAACAAUUUGGAGAAGCUGAGAUCGGAAGAGCACACGU , what is its reported pKd?
8.10

Query target 3 G4C,A5G (mixed) RNA 1: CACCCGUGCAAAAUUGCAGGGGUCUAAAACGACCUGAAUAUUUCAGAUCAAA RNA 2: GGGAAUGGAUCCACAUCUACGAAUUCGUUUUUGAUCUGAAAUAUUCGCGUCUGCAGAUCGGAAGAGCACACGU next
7.83

Query target 1 A9C,A18U (mixed) RNA 1: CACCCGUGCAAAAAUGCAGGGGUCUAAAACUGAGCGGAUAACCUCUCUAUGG RNA 2: GGGAAUGGAUCCACAUCUACGAAUUCGUACCAUUGAGAGGUUCUCCGCUCACCGAGAUCGGAAGAGCACACGU next
7.20

Query target 1 MT 5'PFS UGC 3'PFS UUG (mixed) RNA 1: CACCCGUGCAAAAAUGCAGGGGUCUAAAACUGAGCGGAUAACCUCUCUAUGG RNA 2: GGGAAUGGAUCCACAUCUACGAAUUCUGCCCAUAGAGAGGUUAUCCGCUCAUUGAGAUCGGAAGAGCACACGU next
7.97

Query target 1 insG 3' of 14,insU 3' of 12 (mixed) RNA 1: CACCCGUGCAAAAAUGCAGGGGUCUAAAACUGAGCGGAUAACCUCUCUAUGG RNA 2: GGGAAUGGAUCCACAUCUACGAAUUCGUACCAUAGAGAGGGUUUAUCCGCUCACCGAGAUCGGAAGAGCACACGU next
7.79

Query target 3 insA 3' of 21,insC 3' of 20 (mixed) RNA 1: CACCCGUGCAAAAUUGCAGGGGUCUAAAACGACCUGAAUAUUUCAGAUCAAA RNA 2: GGGAAUGGAUCCACAUCUACGAAUUCGUUUUAUCGAUCUGAAAUAUUCAGGUCUGCAGAUCGGAAGAGCACACGU next
7.13

More entries:
Given the binder target 1 insU 3' of 17,insA 3' of 4 (mixed) RNA 1: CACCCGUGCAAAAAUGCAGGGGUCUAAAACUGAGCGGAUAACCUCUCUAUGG RNA 2: GGGAAUGGAUCCACAUCUACGAAUUCGUACCAUAGUAGAGGUUAUCCGCAUCACCGAGAUCGGAAGAGCACACGU , what is its reported pKd?
7.82

Query target 1 insA 3' of 19,insA 3' of 17 (mixed) RNA 1: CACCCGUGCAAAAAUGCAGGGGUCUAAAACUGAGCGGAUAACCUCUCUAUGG RNA 2: GGGAAUGGAUCCACAUCUACGAAUUCGUACCAUAAGAAGAGGUUAUCCGCUCACCGAGAUCGGAAGAGCACACGU next
7.43
